- Test system: luciferase gene expression in HEK 293 cells in response to Comp. 004
- EXPERIMENTAL PROTOCOL: Screen of riboswitch constructs with 12C6-1 variant aptamers (libraries N1-N5) against Comp. 004, luciferase in HEK 293 cells
- Format: cell-based, human
- CONDITION: library N1 (J2-4), HEK 293, 25 M [sic] Comp. 004
- Description: Cloning of riboswitch constructs containing 12C6-1 variant aptamer sequences: 12C6-1 aptamer sequence was used as template, and nucleobases were randomized at certain position in the sequence. […]
Give Fold (induction of luciferase gene expression) for every item shown.
Answers are plain numbers, in fold.

Example results:
N1_2D12 (CTGGGGAGTCCTTCATGCGGGGC; chemistry not given here): 3.26
N1_2D11 (CTGGGGAGTCCTTCATGCGGGGC; chemistry not given here): 1.96
N1_2F7 (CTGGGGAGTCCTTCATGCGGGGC; chemistry not given here): 41.88
N1_2D7 (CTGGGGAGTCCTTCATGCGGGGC; chemistry not given here): 2.16
N1_2E2 (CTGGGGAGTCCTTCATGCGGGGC; chemistry not given here): 7.86
N1_2G9 (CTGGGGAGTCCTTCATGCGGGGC; chemistry not given here): 30.93

For the next question, use this substance.
Query: Param item = N1_2D3 (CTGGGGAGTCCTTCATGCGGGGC; chemistry not given here) ; retrieve measured Fold (induction of luciferase gene expression).
Reply: 5.40
